For each of the molecules below, state its pKi.
target: D(2) dopamine receptor (Rattus norvegicus, UniProt P61169); assay: Displacement of [3H]nemonapride from rat dopamine D2 receptor
Sequence (P61169 whole entry): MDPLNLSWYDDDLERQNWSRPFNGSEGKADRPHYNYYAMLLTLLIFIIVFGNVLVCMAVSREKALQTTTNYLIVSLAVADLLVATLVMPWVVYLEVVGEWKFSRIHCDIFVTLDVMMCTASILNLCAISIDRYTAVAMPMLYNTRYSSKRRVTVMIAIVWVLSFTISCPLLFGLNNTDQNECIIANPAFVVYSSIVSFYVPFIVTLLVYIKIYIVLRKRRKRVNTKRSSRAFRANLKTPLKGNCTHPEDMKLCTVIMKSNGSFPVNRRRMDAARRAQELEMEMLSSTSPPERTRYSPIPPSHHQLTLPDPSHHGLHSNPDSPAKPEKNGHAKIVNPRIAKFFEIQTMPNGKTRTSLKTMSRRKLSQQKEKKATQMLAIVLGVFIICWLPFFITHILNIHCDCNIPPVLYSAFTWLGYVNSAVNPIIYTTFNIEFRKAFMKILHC
Give bare numbers, as −log10 of the molar value.

{"columns": ["SMILES_INPUT", "MEASURED_METRIC", "MEASURED_VALUE"],
 "data": [
  ["CCCN1CCc2cccc3c2[C@H]1Cc1ccc(CO)c(O)c1-3", "pKi", 5.22],
  ["CN1CCc2cccc3c2[C@H]1Cc1ccc(CO)c(O)c1-3", "pKi", 5.15],
  ["Cc1ccc2c(c1O)-c1cccc3c1[C@@H](C2)N(C)CC3", "pKi", 4.94],
  ["COc1cc2c3c(c1)-c1c(ccc(C)c1O)C[C@H]3N(C)CC2", "pKi", 5.42]
]}

Please look at the following molecule next.
Lookup: Look at this molecule and give its reported pKi. "CCCN1CCc2cc(OC)cc3c2[C@H]1Cc1ccc(C)c(O)c1-3"
Found: 5.87

----------
target: UniProt P18901; test: Displacement of [3H]SCH-23390 from rat dopamine D1 receptor
Sequence (P18901 whole entry): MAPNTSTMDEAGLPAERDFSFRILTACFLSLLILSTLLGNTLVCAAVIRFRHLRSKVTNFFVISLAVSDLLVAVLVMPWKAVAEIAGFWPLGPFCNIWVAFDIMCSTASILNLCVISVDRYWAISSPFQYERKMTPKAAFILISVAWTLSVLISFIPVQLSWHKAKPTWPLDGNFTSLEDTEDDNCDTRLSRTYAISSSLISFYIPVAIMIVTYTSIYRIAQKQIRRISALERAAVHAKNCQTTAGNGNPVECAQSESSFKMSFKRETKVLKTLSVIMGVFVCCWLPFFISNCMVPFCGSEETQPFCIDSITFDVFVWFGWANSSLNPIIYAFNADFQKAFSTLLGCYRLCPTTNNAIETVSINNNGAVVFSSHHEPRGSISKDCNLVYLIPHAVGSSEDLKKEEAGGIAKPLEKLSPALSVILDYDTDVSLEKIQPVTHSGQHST
MEASURED_METRIC: pKi
Answers are plain numbers, as −log10 of the molar value.

Study these solved cases before continuing.
{"columns": ["SMILES_INPUT", "MEASURED_VALUE"],
 "data": [
  ["COc1cc2c3c(c1)-c1c(ccc(C)c1O)C[C@H]3N(C)CC2", 5.75],
  ["CCCN1CCc2cccc3c2[C@H]1Cc1ccc(CO)c(O)c1-3", 5.70],
  ["Cc1ccc2c(c1O)-c1cccc3c1[C@@H](C2)N(C)CC3", 5.02]
]}

Okay, here is my list. What is pKi for each of these?
1. CCCN1CCc2cc(OC)cc3c2[C@H]1Cc1ccc(C)c(O)c1-3
2. CN1CCc2cccc3c2[C@H]1Cc1ccc(CO)c(O)c1-3

Found:
1: 5.55; 2: 5.86

----------
Quick record: Ki, 5-hydroxytryptamine receptor 1A (Rattus norvegicus).
Give bare numbers, in nM.

Study these solved cases before continuing.
{"columns": ["SMILES_INPUT", "Ki [nM]"],
 "data": [
  ["Cc1ccc2c(c1O)-c1cccc3c1[C@@H](C2)N(C)CC3", 216],
  ["CCCN1CCc2cccc3c2[C@H]1Cc1ccc(CO)c(O)c1-3", 375],
  ["COc1cc2c3c(c1)-c1c(ccc(C)c1O)C[C@H]3N(C)CC2", 21.5],
  ["CN1CCc2cccc3c2[C@H]1Cc1ccc(CO)c(O)c1-3", 2.4]
]}

Lookup: Look at this compound and give its reported Ki. "CCCN1CCc2cc(OC)cc3c2[C@H]1Cc1ccc(C)c(O)c1-3"
Found: 480

----------
Quick record: Ki, 5-hydroxytryptamine receptor 2A (Rattus norvegicus, UniProt P14842).
Numbers only, in µM.

{"columns": ["SMILES_INPUT", "MEASURED_ON", "UNITS_TEXT", "MEASURED_VALUE"],
 "data": [
  ["CN1CCc2cccc3c2[C@H]1Cc1ccc(CO)c(O)c1-3", "5-hydroxytryptamine receptor 2A (Rattus norvegicus, UniProt P14842)", "µM", 0.137]
]}

Please look at the following molecule next.
Lookup: Look at this molecule and give its reported Ki. "COc1cc2c3c(c1)-c1c(ccc(C)c1O)C[C@H]3N(C)CC2"
Found: 0.271

Ref: ChEMBL document CHEMBL1149544
